// enrichment ratio lookup, one value per entry
B1: PhoQ; a variant is named by its letters at X, in order, P23837 (parent)
chain: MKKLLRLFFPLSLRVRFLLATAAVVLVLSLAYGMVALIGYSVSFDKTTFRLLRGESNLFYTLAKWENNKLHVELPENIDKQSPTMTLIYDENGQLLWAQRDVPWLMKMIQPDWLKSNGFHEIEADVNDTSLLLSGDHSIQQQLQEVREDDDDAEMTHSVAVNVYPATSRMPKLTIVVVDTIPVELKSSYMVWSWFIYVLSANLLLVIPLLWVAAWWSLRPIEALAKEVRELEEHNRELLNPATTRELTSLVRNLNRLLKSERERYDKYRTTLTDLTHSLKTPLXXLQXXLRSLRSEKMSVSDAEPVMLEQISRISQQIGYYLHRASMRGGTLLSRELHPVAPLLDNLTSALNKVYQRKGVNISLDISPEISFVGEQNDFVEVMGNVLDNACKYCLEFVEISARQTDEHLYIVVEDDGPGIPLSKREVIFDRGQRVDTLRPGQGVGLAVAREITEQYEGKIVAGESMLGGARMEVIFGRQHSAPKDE

# Variants of: B1
# RUN DESCRIPTION: enrichment ratio after two sorts for PhoP signalling (ratio (wild type AVST 3.29)); higher = more functional
# MEASUREMENT PARAMETERS: with PhoP (E. coli)
The full ranking holds about 140,000 sequences; the median of “enrichment ratio after two sorts for PhoP signalling” is about 0, and the highest 2% start at about 11. The list comes from a sample in which the highest values are over-represented; it also holds close analogues and randomly drawn sequences.

The examples below pair each entry with its known result.
KYLM ≤ 0.25
MECC 14.4
QECC ≤ 0.25
TQRG ≤ 0.25
MICD ≤ 0.25
TPLL ≤ 0.25
MEAP ≤ 0.25
YTLL 9.09

Lab note: measured enrichment ratio of "EQLM" was ≤ 0.25

Field enrichment ratio (entry "HVFV" ) reads ≤ 0.25

Measured enrichment ratio, "GSLL" : 14.1

Entry "DPLM" ; enrichment ratio = ≤ 0.25

// "YYLL" : enrichment ratio value = ≤ 0.25

According to the records, this variant "WTQP" displays enrichment ratio of ≤ 0.25

Per the record, "EQCG" has enrichment ratio of ≤ 0.25

Briefly, enrichment ratio measured for "SQCG" : 24.3

In plain terms, "EQLL" has a documented enrichment ratio of ≤ 0.25

What the record says about "MSTW" : enrichment ratio is ≤ 0.25

// enrichment ratio lookup, variant = "GSRL" , result: ≤ 0.25

Summary for this variant, "RYHM" : enrichment ratio is ≤ 0.25

Query "WGSP" yields enrichment ratio of ≤ 0.25

Please fill in: enrichment ratio reported for "LMRT" = ≤ 0.25

Data provenance: a collection of fitness landscapes (doi:10.1126/science.1257360)
